Source: paper PMC9911399

Target: T1, RBFOX1 RRM (Homo sapiens, UniProt Q9NWB1 109-208)
T1 sequence: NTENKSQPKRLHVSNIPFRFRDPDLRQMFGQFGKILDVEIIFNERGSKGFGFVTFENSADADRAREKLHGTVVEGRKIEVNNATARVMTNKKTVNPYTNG
Assay: EMSA; HiTS-Eq, 1 nM pool, 10 min; buffer printed only for the single-RNA assays: 10 mM Tris pH 7.5, 150 mM NaCl, 3.4 mM EDTA, 0.001% NP-40, 30 C
Details: tags: His6 N-terminal (pET28a); label: 5' 32P
The full ranking holds about 16,000 sequences; the median of “ka relative to ugcaugu” is about 0.0091, and the highest 2% start at about 0.032. Many of the other results were omitted from the sample, so the highest values are more common in it than they were.
TEST_READOUT: binding signal

binder="UGGCUGA (DNA:RNA) RNA: GGGAGACCGGAAUUCAGAUUGUCCUGGCUGAUUAAAUCCCGUCGUAGCCACCA DNA 1: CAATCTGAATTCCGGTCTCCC DNA 2: TGGTGGCTACGACGGGATT" test_readout="binding signal" measured="0.036 KA relative to UGCAUGU"
binder="UCAUCGU (DNA:RNA) RNA: GGGAGACCGGAAUUCAGAUUGUCCUCAUCGUUUAAAUCCCGUCGUAGCCACCA DNA 1: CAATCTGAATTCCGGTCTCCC DNA 2: TGGTGGCTACGACGGGATT" test_readout="binding signal" measured="0.0124 KA relative to UGCAUGU"
binder="CGGCUGA (DNA:RNA) RNA: GGGAGACCGGAAUUCAGAUUGUCCCGGCUGAUUAAAUCCCGUCGUAGCCACCA DNA 1: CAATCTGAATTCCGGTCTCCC DNA 2: TGGTGGCTACGACGGGATT" test_readout="binding signal" measured="0.022 KA relative to UGCAUGU"
binder="CGGCUGC (DNA:RNA) RNA: GGGAGACCGGAAUUCAGAUUGUCCCGGCUGCUUAAAUCCCGUCGUAGCCACCA DNA 1: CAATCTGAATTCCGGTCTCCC DNA 2: TGGTGGCTACGACGGGATT" test_readout="binding signal" measured="0.018 KA relative to UGCAUGU"
